- method.notes: Half life in mouse liver microsomes at 1 uM by LC/MS/MS analysis
- Format: ADME, Microsome
observable: t1/2

> print(dat)
                                   compound  observable  recorded.measurement
1      NC(=O)c1ccccc1NC(=O)c1cccnc1N1CCCCC1        t1/2               2.8 min
2  Cc1c(C(=O)OC(C)C)[nH]c2c1C(=O)CC(c1cccs1)C2 (stereo not drawn)        t1/2               3.2 min
3       COc1ccc(S(=O)(=O)N2CCOc3ccccc32)cc1        t1/2               0.7 min
4       O=C(Cc1ccc(-c2ccccc2)cc1)NCc1ccccc1        t1/2              18.5 min
5   CCOc1ccc(Nc2nc(-c3c(C)nc4sccn34)cs2)cc1        t1/2               4.5 min
6  COc1ccc(Cl)cc1C(=O)N1CCN(c2cccc(Cl)c2)CC1        t1/2                 3 min
7  COc1cccc(N2CCN(C(=O)c3cc(C)ccc3OC)CC2)c1        t1/2               1.6 min
8  CCOc1ccccc1C1C(C#N)=C(N)Oc2cc(N(C)C)ccc21 (stereo not drawn)        t1/2               1.9 min

----------
- Test system: Liver microsome
- method.notes: Metabolic stability in human liver microsomes assessed as compound remaining at 1 uM after 60 mins by LC/MS/MS analysis
- Assay type: ADME
- setup.conditions: 1 h
In this section we review reported Stability values for a set of molecules.
observable: Stability (%)

> print(dat)
                                   molecule  observable  recorded.measurement
1  COc1cccc(N2CCN(C(=O)c3cc(C)ccc3OC)CC2)c1   Stability                     1
2  CCOc1ccccc1C1C(C#N)=C(N)Oc2cc(N(C)C)ccc21 (stereo not drawn)   Stability                   1.3
3      NC(=O)c1ccccc1NC(=O)c1cccnc1N1CCCCC1   Stability                   8.3
4   CCOc1ccc(Nc2nc(-c3c(C)nc4sccn34)cs2)cc1   Stability                   1.5
5       COc1ccc(S(=O)(=O)N2CCOc3ccccc32)cc1   Stability                     0
6  Cc1c(C(=O)OC(C)C)[nH]c2c1C(=O)CC(c1cccs1)C2 (stereo not drawn)   Stability                   1.6
7  COc1ccc(Cl)cc1C(=O)N1CCN(c2cccc(Cl)c2)CC1   Stability                   0.1
8       O=C(Cc1ccc(-c2ccccc2)cc1)NCc1ccccc1   Stability                   4.6

----------
- method.notes: Cmax in CD-1 mouse brain at 10 mg/kg, ip administered as single dose by LC/MS/MS analysis
- Assay type: ADME, organism-based
- Design: dose 10 mg/kg, route intraperitoneal
The entries below are paired with their reported Cmax.
observable: Cmax

> print(dat)
                                    compound  recorded.measurement
 1  CCOc1ccc2c(c1)C(C)=CC(C)(C)N2S(=O)(=O)c1ccc(C)cc1             ≤ 16.2 µM
 2  CCN(CC)c1ccc2c(c1)OC(N)=C(C#N)C2c1ccccc1 (stereo unspecified)             ≤ 16.2 µM
 3  O=C(Nc1ccncc1)C1CCCN1S(=O)(=O)c1ccc2ccccc2c1 (stereo unspecified)             ≤ 16.2 µM
 4  CCOC(=O)c1[nH]c2c(c1C)C(=O)CC(c1ccccc1Cl)C2 (stereo unspecified)             ≤ 16.2 µM
 5  CCOC(=O)c1[nH]c2c(c1C)C(=O)CC(c1ccccc1)C2 (stereo unspecified)             ≤ 16.2 µM
 6  Cc1c(C(=O)OC(C)C)[nH]c2c1C(=O)CC(c1cccs1)C2 (stereo unspecified)             ≤ 16.2 µM
 7  COc1cccc(N2CCN(C(=O)c3cc(C)ccc3OC)CC2)c1             ≤ 16.2 µM
 8  CN(C)c1ccc2c(c1)OC(N)=C(C#N)C2c1ccccc1 (stereo unspecified)             ≤ 16.2 µM
 9       COc1ccccc1C(=O)N1CCN(c2ccccc2OC)CC1             ≤ 16.2 µM
10     COc1ccc(Cl)cc1C(=O)N1CC(=O)Nc2ccccc21             ≤ 16.2 µM
11  CN(C)c1ccc2c(c1)OC(N)=C(C#N)C2c1cccc(F)c1 (stereo unspecified)             ≤ 16.2 µM
